Experiment: Pharmacokinetics of PXD in rat plasma (HPLC-UV) after 14 days pretreatment with saline, silybinin or CG
Format: in vivo, rats
Conditions: rat, plasma; Group C (compound glycyrrhizin aqueous solution 13.5 mg/kg, containing glycyrrhizin 4.5 mg/kg, 14 days, then single oral 40 mg/kg PXD), rats, n = 6, mean ± SD
Procedure: Group B was gavaged with silybinin aqueous solution 150 mg/kg (containing silybinin 21 mg/kg), group C was gavaged with compound glycyrrhizin aqueous solution 13.5 mg/kg (containing glycyrrhizin 4.5 mg/kg), and in contrast, group A was gavaged with an equal amount of saline. After 14-days of administration, three groups were given 40 mg/kg PXD. […]
Property Name: Cmax (ng/mL)
Give bare numbers, in ng/mL.

Returns the measured Cmax for the input compound. Input: `FC(F)(F)c1ccc(CNc2ccc(Cc3c[nH]c4ncc(Cl)cc34)cn2)cn1`
14700
